Property: IC50; scope: individual molecules
Biological target: Angiotensin-converting enzyme (Oryctolagus cuniculus)
Sequence (P12822 whole entry): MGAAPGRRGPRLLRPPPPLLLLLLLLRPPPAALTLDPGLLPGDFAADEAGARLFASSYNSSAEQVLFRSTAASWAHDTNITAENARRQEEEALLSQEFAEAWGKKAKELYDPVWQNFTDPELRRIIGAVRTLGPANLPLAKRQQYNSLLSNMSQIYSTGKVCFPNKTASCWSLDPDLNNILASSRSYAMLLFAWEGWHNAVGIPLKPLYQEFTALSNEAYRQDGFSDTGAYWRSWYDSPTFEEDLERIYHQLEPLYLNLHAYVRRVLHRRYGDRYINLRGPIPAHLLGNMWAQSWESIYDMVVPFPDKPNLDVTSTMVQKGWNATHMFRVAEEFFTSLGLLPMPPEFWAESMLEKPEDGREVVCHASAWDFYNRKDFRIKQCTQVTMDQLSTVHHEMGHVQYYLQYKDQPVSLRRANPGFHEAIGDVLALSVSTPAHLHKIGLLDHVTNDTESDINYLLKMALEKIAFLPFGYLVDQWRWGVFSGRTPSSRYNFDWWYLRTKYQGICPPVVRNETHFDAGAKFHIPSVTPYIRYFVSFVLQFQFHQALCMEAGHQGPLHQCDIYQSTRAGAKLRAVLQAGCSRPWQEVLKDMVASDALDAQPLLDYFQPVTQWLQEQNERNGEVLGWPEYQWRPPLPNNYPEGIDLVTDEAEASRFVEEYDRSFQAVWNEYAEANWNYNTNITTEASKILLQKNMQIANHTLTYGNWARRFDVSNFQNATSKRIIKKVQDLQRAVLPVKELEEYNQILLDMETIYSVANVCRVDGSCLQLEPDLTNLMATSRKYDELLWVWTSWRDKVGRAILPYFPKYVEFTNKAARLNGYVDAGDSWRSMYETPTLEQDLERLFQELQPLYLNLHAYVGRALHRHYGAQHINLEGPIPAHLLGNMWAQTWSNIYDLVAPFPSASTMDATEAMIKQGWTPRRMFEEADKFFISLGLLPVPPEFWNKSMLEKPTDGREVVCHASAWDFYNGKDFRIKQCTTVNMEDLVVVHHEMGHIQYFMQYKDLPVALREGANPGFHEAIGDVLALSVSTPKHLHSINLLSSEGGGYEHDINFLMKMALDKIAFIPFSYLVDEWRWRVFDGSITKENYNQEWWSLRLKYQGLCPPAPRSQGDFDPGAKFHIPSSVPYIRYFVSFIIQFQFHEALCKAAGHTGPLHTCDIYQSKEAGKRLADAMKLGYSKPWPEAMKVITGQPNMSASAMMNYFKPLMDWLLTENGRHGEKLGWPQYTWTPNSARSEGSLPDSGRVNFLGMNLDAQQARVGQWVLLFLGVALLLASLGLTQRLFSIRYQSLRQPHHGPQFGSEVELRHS
Assay: Inhibitory concentration against Angiotensin I converting enzyme obtained from rabbit lung acetone powder extract
Conditions: read-out: I50 (converted)
Quantity: IC50 (µM)

COC(=O)[C@@H]1Cc2ccc(cc2)Oc2cc(ccc2O)C[C@H](NC(=O)OCc2ccccc2)C(=O)N[C@@H](CC(N)=O)C(=O)N1 : 198
COC(=O)[C@H]1Cc2ccc(O)c(c2)Oc2ccc(cc2)C[C@H](NC(C)=O)C(=O)N[C@@H](Cc2ccc(O)cc2)C(=O)N1 : 0.89
NC(=O)C[C@@H]1NC(=O)CCc2ccc(O)c(c2)Oc2ccc(cc2)CCNC1=O : 528
COc1ccc2cc1Oc1ccc(cc1)C[C@H](NC(C)=O)C(=O)N[C@@H](Cc1ccc(O)cc1)C(=O)N[C@H](C(=O)O)C2 : 5.34
COc1ccc2cc1Oc1ccc(cc1)C[C@@H](C(=O)O)NC(=O)[C@H](CC(N)=O)NC(=O)[C@@H](N)C2 : 149
COC(=O)[C@H]1Cc2ccc(O)c(c2)Oc2ccc(cc2)C[C@H](N)C(=O)N[C@@H](Cc2ccc(O)cc2)C(=O)N1 : 1.15
O=C1CCc2ccc(cc2)Oc2cc(ccc2O)CCNC(=O)[C@H](Cc2ccc(O)cc2)N1 : 11.2
COC(=O)[C@@H]1Cc2ccc(cc2)Oc2cc(ccc2O)C[C@H](N)C(=O)N[C@@H](CC(N)=O)C(=O)N1 : 42.5
COc1ccc2cc1Oc1ccc(cc1)C[C@@H](C(=O)O)NC(=O)[C@H](CC(N)=O)NC(=O)[C@@H](NC(=O)OCc1ccccc1)C2 : 182
COc1ccc2cc1Oc1ccc(cc1)CCNC(=O)[C@H](CC(N)=O)NC(=O)CC2 : 535
COC(=O)[C@@H]1Cc2ccc(cc2)Oc2cc(ccc2OC)C[C@H](NC(=O)OCc2ccccc2)C(=O)N[C@@H](CC(N)=O)C(=O)N1 : 210
